- Test system: E. coli 70S ribosome
- experimental.details: Competitive fluorescence polarization assay against Cf-ARV-1502 (Ki)
- Assay type: binding, E. coli BW25113
- measurement.conditions: 20 nmol/L Cf-ARV-1502, 0.5 µmol/L ribosome, 28 °C, 90 min + 90 min; Ki calculated from IC50; read-out: Ki (nmol/L), competition with Cf-ARV-1502
assay.readout: Ki (nmol/L)
One number for each entry, in nmol/L.

Dear colleague, could you send me Ki for each of the items below? Thanks.
1. O=C(N[C@H](CO)[C@H](O)c1ccc([N+](=O)[O-])cc1)C(Cl)Cl [Chloramphenicol]
2. CC[C@H]1OC(=O)[C@H](C)[C@@H](O[C@H]2C[C@@](C)(OC)[C@@H](O)[C@H](C)O2)[C@H](C)[C@@H](O[C@@H]2O[C@H](C)C[C@H](N(C)C)[C@H]2O)[C@](C)(O)C[C@@H](C)C(=O)[C@H](C)[C@@H](O)[C@]1(C)O [Erythromycin]

Data returned:
1. 1700
2. 23

Numbers sourced from paper PMC8950706.
